Hey, just so you know, these numbers are from patent US11447466B2.

# measured.target: human TLR7 (Homo sapiens)
# Sequence (Q9NYK1 27-1049): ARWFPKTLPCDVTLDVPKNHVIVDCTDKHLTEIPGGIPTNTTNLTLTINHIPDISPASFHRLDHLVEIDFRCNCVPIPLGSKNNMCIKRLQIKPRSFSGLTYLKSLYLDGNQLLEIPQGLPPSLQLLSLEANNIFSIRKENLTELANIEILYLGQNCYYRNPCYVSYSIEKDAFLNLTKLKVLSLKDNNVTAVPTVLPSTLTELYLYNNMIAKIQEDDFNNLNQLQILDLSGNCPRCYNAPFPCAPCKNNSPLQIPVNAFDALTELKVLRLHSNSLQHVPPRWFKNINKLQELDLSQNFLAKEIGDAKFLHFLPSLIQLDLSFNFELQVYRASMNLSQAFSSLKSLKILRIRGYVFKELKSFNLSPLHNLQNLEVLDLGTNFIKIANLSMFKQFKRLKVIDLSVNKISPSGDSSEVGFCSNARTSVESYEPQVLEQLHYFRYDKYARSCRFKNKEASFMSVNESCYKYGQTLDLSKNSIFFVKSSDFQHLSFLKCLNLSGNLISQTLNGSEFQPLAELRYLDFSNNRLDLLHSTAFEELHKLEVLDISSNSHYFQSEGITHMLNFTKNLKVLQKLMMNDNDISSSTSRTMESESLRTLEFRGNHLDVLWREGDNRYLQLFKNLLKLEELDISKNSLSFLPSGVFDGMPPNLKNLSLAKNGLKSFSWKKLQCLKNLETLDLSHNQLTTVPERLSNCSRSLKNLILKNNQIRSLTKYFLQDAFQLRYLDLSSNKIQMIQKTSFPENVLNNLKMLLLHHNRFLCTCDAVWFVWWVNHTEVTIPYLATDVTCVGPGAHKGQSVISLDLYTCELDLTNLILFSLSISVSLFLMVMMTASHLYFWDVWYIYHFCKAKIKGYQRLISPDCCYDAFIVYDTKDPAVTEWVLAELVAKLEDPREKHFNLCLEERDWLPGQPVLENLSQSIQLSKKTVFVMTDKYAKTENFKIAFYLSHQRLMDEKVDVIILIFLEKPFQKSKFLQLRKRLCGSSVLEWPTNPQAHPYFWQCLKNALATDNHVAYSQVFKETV
# protocol.summary: TLR7 inhibition reporter assay (HEK-Blue SEAP reporter, gardiquimod stimulation)
# assay.context: HEK-Blue cells overexpressing human TLR7, SEAP reporter, gardiquimod 7.5 μM, 22 hour incubation
This section presents compounds with their documented pIC50 values.
As a rule, pIC50 stands for the negative log10 of the concentration, concentration in M.

Recorded results for 3 compounds are shown here.
compound	pIC50
CCn1nc(-c2[nH]c3ccc(C4CCNCC4)cc3c2C(C)C)c(C)c(C)c1=O [Example 27]	6.78
Cc1cc(-c2[nH]c3ccc(C4CCN(C(=O)[C@@H]5C[C@@H](O)CN5C)CC4)cc3c2C(C)C)cn(C)c1=O [Example 289]	8.23
COc1cc(-c2[nH]c3ccc(C4CCN(CC(=O)N(C)C)CC4)cc3c2C(C)C)cn(C)c1=O [Example 128]	8.52

Hi! What's the reported pIC50 for CC(C)c1c(-c2cc(-c3cccnc3)c(=O)n(C)c2)[nH]c2ccc(C3CCN(C)CC3)cc12 [Example 247] on human TLR7 (Homo sapiens)? 8.52
